Reported IC50 values follow for various compounds
System: N87 cells
Assay: Cell proliferation experiment, N87 cells
Format: cell-based
Settings: Cell Titer-Glo, read-out: Cell antiproliferation data N87
Procedure: Reagents: RPMI-1640 medium, McCoy's 5A medium, IMDM medium, MEM medium, L-15 medium, fetal bovine serum, Penicillin-Streptomycin double antibody, trypsin, etc., 2-mercaptoethanol, NEAA, pyruvate, etc. The test cells were cultured in conventional ways, and the cells should be passed for at least 2 generations before plating. […] The fluorescence intensity of each well was detected using the Alarm blue method, and EC50 was calculated. IC50 was calculated according to the following formula: […]

Data request: Entry CC(C)n1cnc2c(NCc3ccc(-c4ccccc4)cc3)nc(N3CCNCC3)nc21 has what IC50?
Data returned: ≤ 0.1 µM

Data request: Entry CCn1cnc2c(NCc3ccc(-c4cccc(CO)n4)cc3)nc(N3CCOCC3)nc21 has what IC50?
Data returned: ≤ 0.1 µM

Data request: Entry CC(C)n1cnc2c(NCc3ccc(-c4ccccc4)cc3)nc(N3CCOCC3)nc21 has what IC50?
Data returned: > 0.3 µM

Data request: Entry CCn1cnc2c(NCc3ccc(-c4cccc(CO)c4)cc3)nc(N3CCNCC3)nc21 has what IC50?
Data returned: ≤ 0.1 µM

Data request: Entry CC(C)n1cnc2c(NCc3ccc(-c4ccccc4)cc3)nc(N3CCCCC3)nc21 has what IC50?
Data returned: > 0.3 µM

Data request: Entry CC(C)n1cnc2c(NCc3ccc(-c4ccccc4)cc3)nc(N3CCN(C)CC3)nc21 has what IC50?
Data returned: 0.1 to 0.3 µM

Data request: Entry CC(C)n1cnc2c(NCc3ccc(-c4ccccc4)cc3)nc(N3CCC[C@H](N)C3)nc21 has what IC50?
Data returned: ≤ 0.1 µM

Data request: Entry CC(C)n1cnc2c(NCc3ccc(-c4ccccc4)cc3)nc(N[C@@H]3CCCNC3)nc21 has what IC50?
Data returned: ≤ 0.1 µM

Data request: Entry CC[C@H](CO)Nc1nc(NCc2ccc(-c3ccccc3)cc2)c2ncn(C(C)C)c2n1 has what IC50?
Data returned: 0.1 to 0.3 µM

Data request: Entry CC(C)n1cnc2c(NCc3ccc(-c4ccccc4)cc3)nc(N3CCC(N)CC3)nc21 has what IC50?
Data returned: ≤ 0.1 µM

---

system: HT-29 cells; assay: Cell proliferation experiment, HT-29 cells; format: cell-based; conditions: Cell Titer-Glo, read-out: Cell antiproliferation data HT-29
Reported Property: IC50

Data request: Entry CCn1cnc2c(NCc3ccc(-c4cccc(CO)c4)cc3)nc(N3CCNCC3)nc21 has what IC50?
Data returned: ≤ 0.1 µM

---

test system: MDA-MB-231 cells; assay: Cell proliferation experiment, MDA-MB-231 cells; format: cell-based; details: Homo sapiens, Cell Titer-Glo, read-out: Cell antiproliferation data MDA-MB-231
pIC50: −log10 of the molar value.
Reported pIC50 values follow for various compounds

CC(C)n1cnc2c(NCc3ccc(-c4ccccc4)cc3)nc(N[C@@H]3CCCNC3)nc21 [UB-014]    ≥ 7.00
CCn1cnc2c(NCc3ccc(-c4cccc(CO)n4)cc3)nc(N3CCN(C)CC3)nc21 [UB-003]    ≥ 7.00
CC(C)n1cnc2c(NCc3ccc(-c4ccccc4)cc3)nc(N3CCCCC3)nc21 [UB-008]    < 6.52
CC[C@H](CO)Nc1nc(NCc2ccc(-c3ccccc3)cc2)c2ncn(C(C)C)c2n1 [UB-007]    < 6.52
CCn1cnc2c(NCc3ccc(-c4ccccn4)cc3)nc(N[C@H]3CC[C@H](O)CC3)nc21 [UB-006]    ≥ 7.00

Attention now shifts to the item below.
Data request: Entry CC(C)n1cnc2c(NCc3ccc(-c4ccccc4)cc3)nc(N3CCOCC3)nc21 [UB-009] has what pIC50?
Data returned: < 6.52
